Attribution: patent US5147871A

Where a name gives a salt, the structure may show the parent alone.
The reader will find MIC measurements below, all made with K. pneumoniae A.

Molecule	MIC [µg/mL]
CCn1cc(C(=O)OCC2=C(C(=O)O)N3C(=O)[C@@H](NC(=O)Cc4cccs4)[C@H]3SC2)c(=O)c2cc(F)c(N3CCN(C=O)CC3)cc21 [Compound G, sodium salt]	4
CCn1cc(C(=O)OCC2=C(C(=O)O)N3C(=O)[C@@H](NC(=O)COc4ccccc4)[C@H]3SC2)c(=O)c2cc(F)c(N3CCCC3)cc21 [Compound H, sodium salt]	32
CCn1cc(C(=O)OCC2=C(C(=O)O)N3C(=O)[C@@H](NC(=O)Cc4cccs4)[C@H]3SC2)c(=O)c2cc3c(cc21)OCO3 [Compound F, sodium salt]	1
